- ASSAY METHOD TEXT: Clearance in rat at 5 mg/kg, po or 1 mg/kg, iv
- Assay type: ADME, organism-based
- RUN PARAMETERS: in vivo
MEASURE NAME: clearance (mL/min/kg)
Numbers only, in mL/min/kg.

CC[C@@H]1C[C@H](C)CC/C=C\[C@@H]2C[C@@]2(C(=O)NS(=O)(=O)C2(C)CC2)NC(=O)[C@@H]2C[C@@H](Oc3ncc(OC)c4ccc(F)cc34)CN2C(=O)[C@H]1NC(=O)OC(C)(C)C(F)(F)F: 1.2
[2H]C([2H])([2H])Oc1cc2ccnc(O[C@@H]3C[C@H]4C(=O)N[C@]5(C(=O)NS(=O)(=O)C6(C)CC6)C[C@H]5/C=C\CC[C@@H](C)C[C@@H](CC)[C@H](NC(=O)OC(C)(C)C(F)(F)F)C(=O)N4C3)c2cc1F: 0.18
C=C[C@@H]1C[C@]1(NC(=O)[C@@H]1C[C@@H](Oc2ncc(OC)c3ccc(Cl)cc23)CN1C(=O)[C@@H](NC(=O)OC(C)(C)C)C(C)(C)C)C(=O)NS(=O)(=O)C1CC1: 38

Proceeding to the next compound to report its clearance.
Ask: Which clearance is reported for this compound? `CC[C@@H]1C[C@H](C)CC/C=C\[C@@H]2C[C@@]2(C(=O)NS(=O)(=O)C2(C)CC2)NC(=O)[C@@H]2C[C@@H](Oc3nccc4cc(OC)c(F)cc34)CN2C(=O)[C@H]1NC(=O)OC(C)(C)C(F)(F)F`
Result: 0.3

----------
Exercise: for every item that follows, state its recorded IC50.
- ASSAY METHOD TEXT: Inhibition of recombinant full length NS3/4A protease in Hepatitis C virus subtype 3a infected in human HuH7 cells using Ac-Asp-Glu-Asp (EDANS)-Glu-Glu-Abu-(COO) Ala-Ser-Lys (DABCYL)-NH2 as substrate by FRET assay
- RUN PARAMETERS: Huh-7
One number for each entry, in nM.

The cases that follow already have their IC50 on record.
CC[C@@H]1C[C@H](C)CC/C=C\[C@@H]2C[C@@]2(C(=O)NS(=O)(=O)C2(C)CC2)NC(=O)[C@@H]2C[C@@H](Oc3ncc(OC)c4ccc(F)cc34)CN2C(=O)[C@H]1NC(=O)OC(C)(C)C(F)(F)F: 8.4
C[C@@H]1CC/C=C\[C@@H]2C[C@@]2(C(=O)NS(=O)(=O)C2CC2)NC(=O)[C@@H]2C[C@@H](Oc3nccc4ccc(F)cc34)CN2C(=O)[C@@H](NC(=O)OC(C)(C)C(F)(F)F)[C@H](C)C1: 20

Ask: // query IC50 value for entry `COc1cnc(O[C@@H]2C[C@H]3C(=O)N[C@]4(C(=O)NS(=O)(=O)C5CC5)C[C@H]4/C=C\CC[C@H](C)C[C@@H](C)[C@H](NC(=O)OC(C)(C)C)C(=O)N3C2)c2cc(Cl)ccc12`
Result: 50

----------
- ASSAY METHOD TEXT: Inhibition of recombinant full length NS3/4A protease in Hepatitis C virus subtype 3a infected in human HuH7 cells using Ac-Asp-Glu-Asp (EDANS)-Glu-Glu-Abu-(COO) Ala-Ser-Lys (DABCYL)-NH2 as substrate by FRET assay
- RUN PARAMETERS: Huh-7
I'd be grateful if you could share measured log10(IC50) for these entries.
Parameter value (number): base-10 log of IC50 in nM.

CC[C@@H]1C[C@H](C)CC/C=C\[C@@H]2C[C@@]2(C(=O)NS(=O)(=O)C2(C)CC2)NC(=O)[C@@H]2C[C@@H](Oc3nccc4cc(OC)c(F)cc34)CN2C(=O)[C@H]1NC(=O)OC(C)(C)C(F)(F)F: 0.80
COc1cnc(O[C@@H]2C[C@H]3C(=O)N[C@]4(C(=O)NS(=O)(=O)C5CC5)C[C@H]4/C=C\CC[C@@H](C)C[C@@H](C)[C@H](NC(=O)OC(C)(C)C(F)(F)F)C(=O)N3C2)c2ccccc12: -0.05
COc1cnc(O[C@@H]2C[C@H]3C(=O)N[C@]4(C(=O)NS(=O)(=O)C5CC5)C[C@H]4/C=C\CCCC[C@@H](C)[C@H](NC(=O)OC(C)(C)C(F)(F)F)C(=O)N3C2)c2cc(Cl)ccc12: 1.11
COc1cnc(O[C@@H]2C[C@H]3C(=O)N[C@]4(C(=O)NS(=O)(=O)C5CC5)C[C@H]4/C=C\CCCC[C@@H](C)[C@H](NC(=O)OC(C)(C)C)C(=O)N3C2)c2cc(Cl)ccc12: 1.04

Ask: I am curious: what log10(IC50) value has been reported for `CC[C@@H]1C[C@H](C)CC/C=C\[C@@H]2C[C@@]2(C(=O)NS(=O)(=O)C2CC2)NC(=O)[C@@H]2C[C@@H](Oc3ncc(OC)c4ccccc34)CN2C(=O)[C@H]1NC(=O)OC(C)(C)C` ?
Result: -0.80
